Entry source: paper PMC7377239

System: iCell cardiomyocytes (human iPSC-derived cardiomyocytes)
Assay: High-content imaging of cytotoxicity and mitochondrial integrity in iPSC-CMs
Type: cell-based
Details: Homo sapiens, Cardiomyocyte, 1.5 h, 0.10 µM; 0.00 µM = 100.00; read-out: cm.tc.90min
Counter-ions that a name gives are not always drawn.
Below, each of the compounds is paired with its reported viability at 0.1 µM value.

Answered examples (4):
>  <compound>
Oc1ccccc1-c1ccc(Cl)cc1

>  <assayEndpoint>
viability at 0.1 µM

>  <result>
95.6%

$$$$
>  <compound>
O=S(=O)(O)Oc1cc(Cl)ccc1-c1ccccc1 [2-yl PCB 3 sulfate]

>  <assayEndpoint>
viability at 0.1 µM

>  <result>
98.4%

$$$$
>  <compound>
O=S(=O)(O)Oc1cc(-c2ccccc2)ccc1Cl [3-yl PCB 3 sulfate]

>  <assayEndpoint>
viability at 0.1 µM

>  <result>
97.6%

$$$$
>  <compound>
Oc1cccc(-c2ccc(Cl)cc2)c1

>  <assayEndpoint>
viability at 0.1 µM

>  <result>
96.6%

$$$$

// below: viability at 0.1 µM requested for another compound
Notebook: Clc1ccc(-c2ccccc2)cc1 , viability at 0.1 µM read as 97.7%
